test: Terminal elimination half-life of SPP100 following single oral dose of SPP100 75 mg capsule studied in healthy human; type: ADME, organism-based; conditions: plasma
measurement.type: half-life (h)

smiles_notation=COCCCOc1cc(C[C@@H](C[C@H](N)[C@@H](O)C[C@H](C(=O)NCC(C)(C)C(N)=O)C(C)C)C(C)C)ccc1OC measurement_type=half-life quantity_unit=h endpoint_result=54

* * *

test: AUC(0-24h) of aliskiren hemifumarate following 2 week oral dosing of aliskiren hemifumarate at 100 mg.Kg-1 level studied on day 14 in female Callithrix jacchus; type: ADME, organism-based; conditions: marmoset, plasma
measurement.type: AUC at 24 h (µg·h/mL)

molecule="COCCCOc1cc(C[C@@H](C[C@H](N)[C@@H](O)C[C@H](C(=O)NCC(C)(C)C(N)=O)C(C)C)C(C)C)ccc1OC.COCCCOc1cc(C[C@@H](C[C@H](N)[C@@H](O)C[C@H](C(=O)NCC(C)(C)C(N)=O)C(C)C)C(C)C)ccc1OC.O=C(O)/C=C/C(=O)O [ALISKIREN FUMARATE]" measurement_type="AUC at 24 h" endpoint_result=142

* * *

test: Cmax (0-168h) of total radioactivity following single intravenous administration of [14C] aliskiren hemifumarate at 1 mg.Kg-1 level in marmoset; format: ADME, organism-based, Callithrix jacchus, Plasma; settings: in vivo
measurement.type: Cmax (µM)

smiles_notation=COCCCOc1cc(C[C@@H](C[C@H](N)[C@@H](O)C[C@H](C(=O)NCC([14CH3])([14CH3])C(N)=O)C(C)C)C(C)C)ccc1OC.O=C(O)/C=C/C(=O)O measurement_type=Cmax quantity_unit=µM endpoint_result=11.4

* * *

experiment: Apparent terminal half-life (0-168h) of unlabeled aliskiren hemifumarate following single intravenous administration of aliskiren hemifumarate at 1 mg.Kg-1 level in marmoset; type: ADME, organism-based, Callithrix jacchus; details: plasma
measurement.type: half-life (h)

compound="COCCCOc1cc(C[C@@H](C[C@H](N)[C@@H](O)C[C@H](C(=O)NCC(C)(C)C(N)=O)C(C)C)C(C)C)ccc1OC.COCCCOc1cc(C[C@@H](C[C@H](N)[C@@H](O)C[C@H](C(=O)NCC(C)(C)C(N)=O)C(C)C)C(C)C)ccc1OC.O=C(O)/C=C/C(=O)O [ALISKIREN FUMARATE]" measurement_type=half-life endpoint_result=36

* * *

test: Cmax of aliskiren hemifumarate following 2 week oral dosing of aliskiren hemifumarate at 50 mg.Kg-1 level studied on day 1 in female Callithrix jacchus; assay type: ADME, organism-based; conditions: marmoset, plasma
measurement.type: Cmax

molecule="COCCCOc1cc(C[C@@H](C[C@H](N)[C@@H](O)C[C@H](C(=O)NCC(C)(C)C(N)=O)C(C)C)C(C)C)ccc1OC.COCCCOc1cc(C[C@@H](C[C@H](N)[C@@H](O)C[C@H](C(=O)NCC(C)(C)C(N)=O)C(C)C)C(C)C)ccc1OC.O=C(O)/C=C/C(=O)O [ALISKIREN FUMARATE]" endpoint_result="8830 ng/mL"

* * *

test: Tmax of aliskiren hemifumarate following 4 week oral dietary dosing of aliskiren hemifumarate at 500 mg.Kg-1 level in female mouse; assay type: ADME, organism-based; conditions: CB6F1-TGrasH2, mouse, in vivo
measurement.type: Tmax (h)

compound="COCCCOc1cc(C[C@@H](C[C@H](N)[C@@H](O)C[C@H](C(=O)NCC(C)(C)C(N)=O)C(C)C)C(C)C)ccc1OC.COCCCOc1cc(C[C@@H](C[C@H](N)[C@@H](O)C[C@H](C(=O)NCC(C)(C)C(N)=O)C(C)C)C(C)C)ccc1OC.O=C(O)/C=C/C(=O)O [ALISKIREN FUMARATE]" measurement_type=Tmax endpoint_result=0
